Data provenance: ChEMBL document CHEMBL2163314

- studySystem: Lysosomal acid glucosylceramidase (Homo sapiens, UniProt P04062)
- testMethodNotes: Competitive inhibition of recombinant Imiglucerase using 4-methylumbelliferyl-beta-D-glucopyranoside as substrate preincubated for 30 mins before substrate addition at pH 5.2 by Dixon plot assay
pIC50: −log10 of the molar value.
assayEndpoint: pIC50

INSERT INTO assay_data (smilesinput, assayendpoint, resultvalue) VALUES
  ('CCCCCCCCCN[C@H]1[C@H](O)[C@@H](O)[C@H](O)[C@@H](O)[C@H]1OCCCCCCCCC.Cl', 'pIC50', 8.40),
  ('CCCCCCCCCN[C@@H]1[C@H](O)[C@@H](O)[C@H](O)[C@@H](O)[C@@H]1O', 'pIC50', 4.28),
  ('CCCCCCCCCN(CCCCCCCCC)[C@@H]1[C@H](O)[C@H](O)[C@@H](O)[C@H](O)[C@H]1O.Cl', 'pIC50', 5.76),
  ('CCCCCCCCCN[C@H]1[C@H](O)[C@@H](O)[C@H](O)[C@@H](O)[C@H]1OC.Cl', 'pIC50', 6.89);

* * *

- studySystem: UniProtKB P04062
- testMethodNotes: Competitive inhibition of recombinant Imiglucerase using 4-methylumbelliferyl-beta-D-glucopyranoside as substrate preincubated for 30 mins before substrate addition at pH 7.0 by Dixon plot assay
Catalogue of log10(IC50) readings, one per entry.
assayEndpoint: log10(IC50) (log10 of the value in nM)

INSERT INTO assay_data (smilesinput, resultvalue) VALUES
  ('CCCCCCCCCN[C@@H]1[C@H](O)[C@H](O)[C@@H](O)[C@H](O)[C@H]1O.Cl', 1.40),
  ('CCCCCCCCCN(CCCCCCCCC)[C@@H]1[C@H](O)[C@H](O)[C@@H](O)[C@H](O)[C@H]1O.Cl', 2.72),
  ('CCCCCCCCCO[C@H]1[C@@H](N)[C@H](O)[C@@H](O)[C@H](O)[C@H]1O.Cl', 2.08),
  ('CCCCCCCCCN[C@@H]1[C@H](O)[C@@H](O)[C@H](O)[C@@H](O)[C@@H]1O', 4.40),
  ('CCCCCCCCCN[C@H]1[C@H](O)[C@@H](O)[C@H](O)[C@@H](O)[C@@H]1O', 2.89),
  ('CCCCCCCCCN[C@H]1[C@H](O)[C@@H](O)[C@H](O)[C@@H](O)[C@H]1OC.Cl', 1.28),
  ('CCCCCCCCCN[C@H]1[C@H](O)[C@@H](O)[C@H](O)[C@@H](O)[C@@H]1OCCCCCCCCC.Cl', 2.23),
  ('CCCCCCCCCN[C@H]1[C@H](O)[C@@H](O)[C@H](O)[C@@H](O)[C@H]1OCCCCCCCCC.Cl', 0.70),
  ('CCCCCCCCCN[C@H]1[C@H](O)[C@@H](O)[C@H](O)[C@@H](O)[C@@H]1OC.Cl', 2.83);

* * *

- studySystem: Lysosomal acid glucosylceramidase (Homo sapiens, UniProt P04062)
- Sequence (P04062 whole entry): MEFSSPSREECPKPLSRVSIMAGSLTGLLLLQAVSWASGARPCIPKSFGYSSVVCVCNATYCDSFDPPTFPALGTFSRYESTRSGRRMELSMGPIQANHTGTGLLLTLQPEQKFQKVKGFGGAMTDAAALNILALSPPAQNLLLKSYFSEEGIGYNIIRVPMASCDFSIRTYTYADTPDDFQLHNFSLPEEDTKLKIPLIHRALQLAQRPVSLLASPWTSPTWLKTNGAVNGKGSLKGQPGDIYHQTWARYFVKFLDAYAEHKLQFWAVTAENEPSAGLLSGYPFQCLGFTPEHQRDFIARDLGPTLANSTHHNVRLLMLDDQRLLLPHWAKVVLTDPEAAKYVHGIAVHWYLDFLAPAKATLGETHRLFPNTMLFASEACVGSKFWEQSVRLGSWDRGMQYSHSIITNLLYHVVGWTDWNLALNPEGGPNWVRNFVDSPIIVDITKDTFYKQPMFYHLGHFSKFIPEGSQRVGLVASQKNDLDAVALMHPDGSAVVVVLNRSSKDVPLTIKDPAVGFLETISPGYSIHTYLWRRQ
- testMethodNotes: Binding affinity to recombinant imiglucerase using 4-methylumbelliferyl-beta-D-glucopyranoside as substrate preincubated for 30 mins before substrate addition by Lineweaver-Burk plot assay
Catalogue of Ki readings, one per entry.
assayEndpoint: Ki (nM)

INSERT INTO results (smilesinput, resultvalue) VALUES
  ('CCCCCCCCCO[C@H]1[C@@H](N)[C@H](O)[C@@H](O)[C@H](O)[C@H]1O.Cl', 130),
  ('CCCCCCCCCN[C@@H]1[C@H](O)[C@H](O)[C@@H](O)[C@H](O)[C@H]1O.Cl', 32),
  ('CCCCCCCCCN(CCCCCCCCC)[C@@H]1[C@H](O)[C@H](O)[C@@H](O)[C@H](O)[C@H]1O.Cl', 820);
